- SYSTEM_UNDER_TEST: T1, human VEGF (hVEGF) (human, UniProt P15692 181-395)
- T1 construct: also called VEGF-A
- T1 sequence: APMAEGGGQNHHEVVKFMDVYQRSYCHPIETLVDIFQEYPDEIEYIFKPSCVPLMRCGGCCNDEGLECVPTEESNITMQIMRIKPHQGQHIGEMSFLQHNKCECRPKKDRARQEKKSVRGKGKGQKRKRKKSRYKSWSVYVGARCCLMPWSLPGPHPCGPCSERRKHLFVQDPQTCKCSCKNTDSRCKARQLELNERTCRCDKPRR
- EXPERIMENT_DESCRIPTION: SPR single-cycle;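 also: fab variants injected over hVEGF immobilized on a CM5 chip (Biacore T200), threefold dilution series from 0.02 to 50 nM, kinetics fitted with a 1:1 Langmuir model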
Form field: koff (one value per entry).
QUANTITY: koff (s⁻¹)

# BINDER, OBSERVED
data = [
    ("G6.31 HC-T73E (Fab, name in Kabat numbering, V domains shown, Fab) VH: EVQLVESGGGLVQPGGSLRLSCAASGFTISDYWIHWVRQAPGKGLEWVAGITPAGGYTYYADSVKGRFTISADESKNTAYLQMNSLRAEDTAVYYCARFVFFLPYAMDYWGQGTLVTVSS VL: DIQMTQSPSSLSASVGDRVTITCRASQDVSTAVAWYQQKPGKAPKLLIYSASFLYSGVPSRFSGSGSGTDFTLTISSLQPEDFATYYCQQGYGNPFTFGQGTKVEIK", 0.000434),
    ("G6.31 HC-T77E (Fab, name in Kabat numbering, V domains shown, Fab) VH: EVQLVESGGGLVQPGGSLRLSCAASGFTISDYWIHWVRQAPGKGLEWVAGITPAGGYTYYADSVKGRFTISADTSKNEAYLQMNSLRAEDTAVYYCARFVFFLPYAMDYWGQGTLVTVSS VL: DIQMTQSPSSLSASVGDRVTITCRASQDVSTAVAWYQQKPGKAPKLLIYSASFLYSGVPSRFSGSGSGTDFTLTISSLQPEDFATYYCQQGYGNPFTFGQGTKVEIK", 0.000477),
    ("G6.31 HC-T28K (Fab, name in Kabat numbering, V domains shown, Fab) VH: EVQLVESGGGLVQPGGSLRLSCAASGFKISDYWIHWVRQAPGKGLEWVAGITPAGGYTYYADSVKGRFTISADTSKNTAYLQMNSLRAEDTAVYYCARFVFFLPYAMDYWGQGTLVTVSS VL: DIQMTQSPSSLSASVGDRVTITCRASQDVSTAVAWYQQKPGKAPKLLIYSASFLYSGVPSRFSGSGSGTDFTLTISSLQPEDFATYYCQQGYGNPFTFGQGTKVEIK", 0.00041),
]
